TARGET ENTITY: endogenous GSTO1 (Homo sapiens, UniProt P78417)
Sequence (P78417 1-241): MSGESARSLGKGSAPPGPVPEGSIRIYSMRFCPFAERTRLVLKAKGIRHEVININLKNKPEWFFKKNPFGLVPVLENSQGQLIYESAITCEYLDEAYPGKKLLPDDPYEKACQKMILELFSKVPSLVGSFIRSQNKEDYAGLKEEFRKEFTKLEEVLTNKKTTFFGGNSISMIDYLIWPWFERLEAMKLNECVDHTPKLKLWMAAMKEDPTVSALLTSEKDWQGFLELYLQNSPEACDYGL
PROTOCOL DETAILS: In-gel fluorescence competitive CMFDA binding assay, endogenous GSTO1 in HCT116
ASSAY SETUP: 10 µM; inhibition of CMFDA binding, HCT116
I'd appreciate it if you could supply GSTO binding assay (% Inhibition at 10 µM) Endogenous values for the items below.
Kindly report the value followed by its unit.

compound=Cc1ccc(C)c(-n2nc(C)cc2NC(=O)CCl)c1 target_entity="endogenous GSTO1 (Homo sapiens, UniProt P78417)" result=51.3%
compound="CC(C)c1ccc(C(NC(=O)CCl)C(C)C)cc1 (centres unmarked)" target_entity="endogenous GSTO1 (Homo sapiens, UniProt P78417)" result=51.3%
compound=Cc1cc(S(=O)(=O)N(C)C)cc(NC(=O)CCl)c1C target_entity="endogenous GSTO1 (Homo sapiens, UniProt P78417)" result=48.9%
compound=COc1cc(NC(=O)CCl)c(Cl)cc1C(=O)O target_entity="endogenous GSTO1 (Homo sapiens, UniProt P78417)" result=49.7%

Kindly review the next compound as well.
Input line: Which measured GSTO binding assay (% Inhibition at 10 µM) Endogenous value corresponds to `COc1ccc(N2CCN(C(=O)CCl)CC2)cc1` ?
Output line: 51.5%

====

TARGET ENTITY: endogenous GSTO1 (Homo sapiens)
PROTOCOL DETAILS: In-gel fluorescence competitive CMFDA binding assay, endogenous GSTO1 in HCT116
ASSAY SETUP: 10 µM; inhibition of CMFDA binding, HCT116
PROPERTY LABEL: GSTO binding assay (% Inhibition at 10 µM) Endogenous
State the result as a value with its unit after it.

molecule="COC(=O)c1ccc(C(=O)OC)c(NC(=O)CCl)c1 [C1-8]" target_entity="endogenous GSTO1 (Homo sapiens)" result=56.5%
molecule="O=C(CCl)NCCCSc1ccccc1 [C3-14]" target_entity="endogenous GSTO1 (Homo sapiens)" result=56.4%
molecule="CC(C)C(NC(=O)CCl)c1cccs1 (stereo not drawn) [C3-28]" target_entity="endogenous GSTO1 (Homo sapiens)" result=44.1%
molecule="COc1ccc2cc(CN(C)C(=O)CCl)ccc2c1 [C4-6]" target_entity="endogenous GSTO1 (Homo sapiens)" result=49.5%
molecule="CN(c1ccccc1)S(=O)(=O)c1cccc(NC(=O)CCl)c1 [C1-28]" target_entity="endogenous GSTO1 (Homo sapiens)" result=57.2%

Go through the items and report each one's GSTO binding assay (% Inhibition at 10 µM) Endogenous.
1. CN(CC(=O)N1CCOCC1)C(=O)CCl [C4-12]
2. O=C(CCl)Nc1c(Br)cc([N+](=O)[O-])cc1Br [C1-3]
3. CCN1CCN(c2ccc(NC(=O)CCl)cc2)CC1 [C1-20]
4. CN(Cc1cnn(-c2ccccc2)c1)C(=O)CCl [C4-10]

Output line:
1: -29.3%; 2: 3.8%; 3: -15.1%; 4: 53.1%
